Molecular target: recombinant mouse sEH (MsEH) (Mus musculus (Mouse))
Sequence (P34914 whole entry): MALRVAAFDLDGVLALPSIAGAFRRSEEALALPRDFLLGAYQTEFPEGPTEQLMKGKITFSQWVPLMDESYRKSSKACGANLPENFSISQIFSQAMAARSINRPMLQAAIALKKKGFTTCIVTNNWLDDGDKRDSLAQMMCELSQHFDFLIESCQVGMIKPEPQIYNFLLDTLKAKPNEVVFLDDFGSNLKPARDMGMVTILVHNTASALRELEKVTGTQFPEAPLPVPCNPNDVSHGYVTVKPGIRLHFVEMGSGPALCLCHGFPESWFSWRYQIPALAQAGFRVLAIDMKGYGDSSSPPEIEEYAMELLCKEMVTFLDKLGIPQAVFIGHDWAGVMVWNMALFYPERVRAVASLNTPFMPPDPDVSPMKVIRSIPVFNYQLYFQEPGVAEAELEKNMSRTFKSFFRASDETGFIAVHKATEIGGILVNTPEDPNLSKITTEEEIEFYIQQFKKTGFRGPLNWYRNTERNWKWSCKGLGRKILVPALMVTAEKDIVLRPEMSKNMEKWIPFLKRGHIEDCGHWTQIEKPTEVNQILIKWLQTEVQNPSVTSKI
Experiment: Spectrophotometric sEH inhibition assay (NEP2C substrate), recombinant mouse sEH
Type: biochemical
Conditions: Table 2; MsEH […]; read-out: Mouse sEH IC50
Each entry below lists one item and its recorded IC50 value.
parameter: IC50 (µM)

{"columns": ["compound", "parameter", "unit-abbreviation", "measured-number"],
 "data": [
  ["COC(c1ccccc1)C1OC1c1ccccc1 (racemic)", "IC50", "µM", 103],
  ["OC(c1ccccc1)C1OC1c1ccc(F)cc1 (racemic)", "IC50", "µM", 72],
  ["COC(c1ccccc1)C1OC1c1ccc(-c2ccccc2)cc1 (racemic)", "IC50", "µM", 0.48],
  ["OCC1OC1c1ccccc1 (centres unmarked) [C6H5 / H / CH—OH / S,S]", "IC50", "µM", 2400],
  ["[O-][S+](c1ccccc1)C1OC1c1ccccc1 (racemic)", "IC50", "µM", 2.3]
]}
